Measured efflux ratio at 2 h, 20 µM accompanies every entry in the list below.
assay: in vitro; settings: human, Caco-2
Description: Efflux ratio of apparent permeability across basolateral to apical membrane over apical to basolateral membrane in human Caco2 cells at 20 uM after 2 hrs by LC-MS analysis
Give the figure by itself; no unit, no explanation.

Can you share its efflux ratio at 2 h, 20 µM? I mean this compound: `COC(=O)c1ccccc1-c1c2ccc(=N)cc-2oc2cc(N)ccc12`
8.4

Likewise for CC(C)NCC(O)COc1cccc2ccccc12 (centres undefined) ?
1.1

Can you handle `N=C(N)NC(=O)c1nc(-c2cc3ccccc3o2)c(N2CCCCCC2)nc1N` next?
40

Now this one: N=C(N)NC(=O)c1nc(Cl)c(N2CCCCCC2)nc1N [N,N-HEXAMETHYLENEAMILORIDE]
3.8

---

test: Plasma clearance in Balb/C mouse at 3.5 mg/kg, iv up to 24 hrs by LC-MS analysis; assay type: ADME, organism-based
Recorded Metric: clearance (mL/min/kg)
Just the number in mL/min/kg, nothing appended.

Record request: clearance value, item `N=C(N)NC(=O)c1nc(-c2cc3ccccc3o2)c(N)nc1N`
114

---

Overview of reported solubility kinetic across a group of compounds:
assay: physchem; conditions: PBS, pH 6.5, pH 6.5
Give your result in µg/mL as a bare value.

N=C(N)NC(=O)c1nc(-c2cc3ccccc3s2)c(N2CCCCCC2)nc1N :: 3.1
N=C(N)NC(=O)c1nc(-c2cc3ccccc3s2)c(N)nc1N :: 12.5
N=C(N)NC(=O)c1nc(-c2ccc(C(F)(F)F)cc2)c(N2CCCCCC2)nc1N :: 3.1

Entry N=C(N)NC(=O)c1nc(Cl)c(N2CCCCCC2)nc1N [N,N-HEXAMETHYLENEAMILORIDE] : reported solubility kinetic = ?
50

Param item: `N=C(N)NC(=O)c1nc(-c2ccc(C(F)(F)F)cc2)c(N)nc1N`
50

---

assay: Half life in Sprague-Dawley rat at 2.9 mg/kg, iv up to 24 hrs by LC-MS analysis; assay type: ADME, organism-based; conditions: in vivo
Recorded Metric: half-life

Entry under review: `COc1ncc(-c2nc(C(=O)NC(=N)N)c(N)nc2N)cn1` . Reported half-life?
6.7 h

---

test: Drug excretion in Sprague-Dawley rat urine at 3.9 mg/kg, iv up to 24 hrs by LC-MS analysis; assay type: ADME, organism-based; conditions: read-out: Drug excretion
Recorded Metric: dose excreted at 24 h (%)
Respond with the bare value in %.

Reported dose excreted at 24 h, molecule `N=C(N)NC(=O)c1nc(-c2cc3ccccc3o2)c(N2CCCCCC2)nc1N` : ____
0.02

---

assay: Volume of distribution at steady state in Balb/C mouse plasma at 1.9 mg/kg, iv up to 24 hrs by LC-MS analysis; format: ADME, organism-based; conditions: read-out: Vdss
Recorded Metric: Vd (L/kg)
Numbers only here, please. The scale is L/kg.

What value of Vd has been reported for the following molecule? `COc1ncc(-c2nc(C(=O)NC(=N)N)c(N)nc2N)cn1`
0.7

---

assay: Volume of distribution at steady state in Balb/C mouse blood at 2.5 mg/kg, iv up to 24 hrs by LC-MS analysis; assay type: ADME, organism-based; settings: whole blood, read-out: Vdss
Recorded Metric: Vd (L/kg)
Express your answer in L/kg, writing the number without its unit.

Can you share its Vd? I mean this compound: N=C(N)NC(=O)c1nc(Cl)c(N2CCCCCC2)nc1N [N,N-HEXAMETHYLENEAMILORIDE]
1.4

---

assay: Apparent half life in Balb/C mouse at 2.5 mg/kg, iv up to 24 hrs by LC-MS analysis; format: ADME, organism-based; settings: in vivo, read-out: t1/2(app) (converted)
Recorded Metric: half-life (min)
Give just the numeric value; min need not be written.

# get_value(readout='half-life', item= N=C(N)NC(=O)c1nc(Cl)c(N2CCCCCC2)nc1N [N,N-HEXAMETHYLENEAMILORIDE] )
37.2

---

Let's look at some molecules and their measured microsomal CLint at 1 h, 1 µM.
experiment: in vitro; conditions: mouse, liver microsomes
Use µL/min/mg as the unit, but write only the number.

Study these solved cases before continuing.
N=C(N)NC(=O)c1nc(-c2cc3ccccc3s2)c(N2CCCCCC2)nc1N :: 83
N=C(N)NC(=O)c1nc(-c2cc3ccccc3o2)c(N2CCCCCC2)nc1N :: 73
N=C(N)NC(=O)c1nc(-c2cncnc2)c(N2CCCCCC2)nc1N :: 17
N=C(N)NC(=O)c1nc(-c2ccco2)c(N)nc1N :: 224
N=C(N)NC(=O)c1nc(-c2cc3ccccc3s2)c(N)nc1N :: 252

With those in mind, consider the next molecule.
Query: microsomal CLint at 1 h, 1 µM; subject: `N=C(N)NC(=O)c1nc(-c2ccc(C(F)(F)F)cc2)c(N)nc1N`
11

---

This listing pairs molecules with measured recovery at 2 h, 20 µM.
experiment: in vitro; conditions: human, Caco-2
Description: Permeability across apical to basolateral side in human Caco2 cells assessed as mass balance at 20 uM after 2 hrs by LC-MS analysis
Provide only the numeric value, understood in %.

Record excerpt, results attached:
N=C(N)NC(=O)c1nc(-c2cc3ccccc3o2)c(N2CCCCCC2)nc1N :: 29
N=C(N)NC(=O)c1nc(Cl)c(N2CCCCCC2)nc1N [N,N-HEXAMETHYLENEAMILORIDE] :: 79

Which recovery at 2 h, 20 µM is reported for this molecule? `COc1ncc(-c2nc(C(=O)NC(=N)N)c(N)nc2N)cn1`
104

---

assay: Clearance in Balb/C mouse blood at 3.5 mg/kg, iv up to 24 hrs by LC-MS analysis; format: ADME, organism-based; conditions: whole blood
Recorded Metric: clearance (mL/min/kg)
Write the answer as a number in mL/min/kg, unit excluded.

Given the molecule `N=C(N)NC(=O)c1nc(-c2cc3ccccc3o2)c(N)nc1N` , what is its reported clearance?
60

---

test: in vitro; conditions: mouse, liver microsomes
Description: Half life in mouse liver microsomes at 1 uM up to 60 mins in presence of NADPH
Mark true only when half-life at 1 h, 1 µM stays strictly below 10 min. Values equal to the cut-off are false.

N=C(N)NC(=O)c1nc(-c2ccco2)c(N2CCCCCC2)nc1N :: false
N=C(N)NC(=O)c1nc(Cl)c(N2CCCCCC2)nc1N [N,N-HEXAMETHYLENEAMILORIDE] :: true
N=C(N)NC(=O)c1nc(-c2cc3ccccc3o2)c(N)nc1N :: false

Please find the next compound below.
Lab note: half-life at 1 h, 1 µM threshold 10 min. Does this compound come in strictly under it? `N=C(N)NC(=O)c1nc(-c2ccco2)c(N)nc1N`
true

---

experiment: Apparent half life in Balb/C mouse at 3.5 mg/kg, iv up to 24 hrs by LC-MS analysis; type: ADME, organism-based; conditions: in vivo, read-out: t1/2(app) (converted)
Recorded Metric: half-life (min)
Express it in min; write the number only.

Given the entry `N=C(N)NC(=O)c1nc(-c2cc3ccccc3o2)c(N)nc1N` , report its measured half-life.
43.8

---

assay: Drug excretion in Sprague-Dawley rat urine at 2.6 mg/kg, iv up to 24 hrs by LC-MS analysis; type: ADME, organism-based; details: read-out: Drug excretion
Recorded Metric: dose excreted at 24 h (%)
Express the result in % but write the number alone.

Look at this compound and give its reported dose excreted at 24 h. `N=C(N)NC(=O)c1nc(-c2cc3ccccc3o2)c(N)nc1N`
12.5

---

assay: Clearance in Balb/C mouse blood at 2.5 mg/kg, iv up to 24 hrs by LC-MS analysis; type: ADME, organism-based; details: whole blood
Recorded Metric: clearance (L/h/kg)
All answers are understood in L/h/kg, so give the number only.

Dear colleague, I am looking for the recorded clearance of the following compound: N=C(N)NC(=O)c1nc(Cl)c(N2CCCCCC2)nc1N [N,N-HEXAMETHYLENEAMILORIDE]
3.54

---

Known log10 CL free of a selection of compounds
details: mouse, microsomes, 1 h, 1 µM
Base-10 log of CL free, unit µL/min/mg.

N=C(N)NC(=O)c1nc(-c2cc3ccccc3o2)c(N2CCCCCC2)nc1N :: 2.95
N=C(N)NC(=O)c1nc(-c2cc3ccccc3s2)c(N)nc1N :: 2.62
N=C(N)NC(=O)c1nc(-c2ccco2)c(N)nc1N :: 2.39
N=C(N)NC(=O)c1nc(-c2ccco2)c(N2CCCCCC2)nc1N :: 2.84
N=C(N)NC(=O)c1nc(-c2ccc(C(F)(F)F)cc2)c(N2CCCCCC2)nc1N :: 3.01

# query: log10 CL free of entry `N=C(N)NC(=O)c1nc(-c2ccc(C(F)(F)F)cc2)c(N)nc1N`
1.23

Similarly, `N=C(N)NC(=O)c1nc(-c2cncnc2)c(N2CCCCCC2)nc1N` ?
1.43

And the next one, N=C(N)NC(=O)c1nc(Cl)c(N2CCCCCC2)nc1N [N,N-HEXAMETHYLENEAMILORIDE] ?
3.35

Repeat with `N=C(N)NC(=O)c1nc(-c2cc3ccccc3o2)c(N)nc1N`
2.22

Next record, please: `N=C(N)NC(=O)c1nc(-c2cc3ccccc3s2)c(N2CCCCCC2)nc1N`
3.11
